Target system: Amine oxidase [flavin-containing] B (Homo sapiens)
Sequence (P27338 whole entry): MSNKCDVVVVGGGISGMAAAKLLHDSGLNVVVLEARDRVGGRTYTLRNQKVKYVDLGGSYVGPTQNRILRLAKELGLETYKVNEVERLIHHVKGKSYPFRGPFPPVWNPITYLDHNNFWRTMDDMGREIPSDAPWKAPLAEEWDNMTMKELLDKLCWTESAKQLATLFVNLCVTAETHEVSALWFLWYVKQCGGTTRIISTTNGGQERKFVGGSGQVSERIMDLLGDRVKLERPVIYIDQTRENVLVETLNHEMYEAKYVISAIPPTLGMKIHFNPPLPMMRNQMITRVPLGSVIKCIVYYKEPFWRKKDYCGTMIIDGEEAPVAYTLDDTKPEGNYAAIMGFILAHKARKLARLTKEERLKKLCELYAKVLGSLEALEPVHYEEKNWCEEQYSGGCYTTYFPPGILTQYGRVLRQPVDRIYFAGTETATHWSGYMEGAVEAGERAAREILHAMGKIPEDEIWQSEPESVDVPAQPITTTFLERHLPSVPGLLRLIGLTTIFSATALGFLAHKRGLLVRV
Test protocol: Inhibition of human recombinant MAOB expressed in BTI cells
Assay type: cell-based
Property measured: pIC50
Numbers only, as −log10 of the molar value.

Task: What pIC50 value was documented for this molecule, `COc1cccc(-c2cc3cc(C)ccc3oc2=O)c1` ?
Output: 9.10
